B1: library; numbered along this chain (parent)
chain: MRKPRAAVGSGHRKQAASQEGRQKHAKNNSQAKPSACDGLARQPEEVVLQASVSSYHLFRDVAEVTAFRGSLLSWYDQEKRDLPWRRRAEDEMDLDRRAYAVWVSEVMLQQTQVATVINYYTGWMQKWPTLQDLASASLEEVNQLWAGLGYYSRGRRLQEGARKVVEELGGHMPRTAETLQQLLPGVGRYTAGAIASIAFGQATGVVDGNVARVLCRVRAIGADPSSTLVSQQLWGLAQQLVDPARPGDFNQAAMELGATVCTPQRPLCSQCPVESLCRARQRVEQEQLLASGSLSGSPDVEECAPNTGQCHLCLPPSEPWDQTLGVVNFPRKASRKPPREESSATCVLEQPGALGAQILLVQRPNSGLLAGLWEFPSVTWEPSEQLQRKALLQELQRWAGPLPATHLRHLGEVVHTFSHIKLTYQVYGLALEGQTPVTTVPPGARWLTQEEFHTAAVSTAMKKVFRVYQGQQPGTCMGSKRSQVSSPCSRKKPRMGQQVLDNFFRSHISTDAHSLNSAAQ

variants of: B1; assay: 8OG:A repair function score (normalized; synonymous = 0, nonsense = -1) (normalized log-likelihood score); higher = more repair activity (WT-like); details: with 8OG:A DNA repair reporter (GFP) in HEK-293 MUTYH KO cells;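 also: cells sorted at 72 h after reporter transfection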
Below, each entry is listed alongside its reported 8OG:A repair function score.
Please reply with the value in numeric form only.

Below: 4 variants and their reported 8OG:A repair function score.
variant.string: G475Q
data.value: -0.00214
//
variant.string: H172S
data.value: 0.0204
//
variant.string: A400R
data.value: -0.432
//
variant.string: S153K
data.value: -0.0744

[Q] Using the record for `A196D` , report its 8OG:A repair function score.
[A] -0.616

[Q] Reported 8OG:A repair function score for `L355A` : what is it?
[A] 0.00558
